Molecular target: T1, cathepsin G (human) (human, UniProt P08311 21-244)
T1 construct: mature
T1 sequence (looked up): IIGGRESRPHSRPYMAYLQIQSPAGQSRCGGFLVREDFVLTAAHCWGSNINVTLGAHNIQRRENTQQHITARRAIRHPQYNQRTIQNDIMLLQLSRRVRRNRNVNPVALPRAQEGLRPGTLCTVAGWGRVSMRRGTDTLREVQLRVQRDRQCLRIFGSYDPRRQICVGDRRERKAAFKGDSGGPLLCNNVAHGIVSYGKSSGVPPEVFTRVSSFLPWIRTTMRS
Test: calculated by Cheng-Prusoff from the enzyme-inhibition IC50 and the substrate Km (250 uM general chymotrypsin substrate)

binder: recombinant Simukunin (rSV-66), Simulium vittatum SV-66 without signal peptide, His-tagged, expressed in E. coli (other, also called rSimukunin; WT rSimukunin; not shown: His tag(s) from vector pET-30 Ek/LIC ('C-terminal double His tags')) QENVCNLPVDEGVCRALFKRFYYEPATDSCKEFYYGGCEGNGNRFKSKKECILKCQKNKQLIKTRKRKPKKTTKPPIPIISLD
Ki / nM: 100

The measurements presented in this section are drawn from patent US20150038419A1.
